- testSystem: von Hippel-Lindau disease tumor suppressor/Son of sevenless homolog 1 (Homo sapiens, UniProt Q07889+P40337)
- Sequence (P40337 whole entry, looked up): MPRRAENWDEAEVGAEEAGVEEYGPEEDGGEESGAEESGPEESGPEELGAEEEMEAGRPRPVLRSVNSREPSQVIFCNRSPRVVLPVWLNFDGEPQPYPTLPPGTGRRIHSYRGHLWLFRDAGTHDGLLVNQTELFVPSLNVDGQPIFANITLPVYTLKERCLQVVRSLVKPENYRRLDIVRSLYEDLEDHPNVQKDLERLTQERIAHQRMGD
- Sequence (Q07889 whole entry, looked up): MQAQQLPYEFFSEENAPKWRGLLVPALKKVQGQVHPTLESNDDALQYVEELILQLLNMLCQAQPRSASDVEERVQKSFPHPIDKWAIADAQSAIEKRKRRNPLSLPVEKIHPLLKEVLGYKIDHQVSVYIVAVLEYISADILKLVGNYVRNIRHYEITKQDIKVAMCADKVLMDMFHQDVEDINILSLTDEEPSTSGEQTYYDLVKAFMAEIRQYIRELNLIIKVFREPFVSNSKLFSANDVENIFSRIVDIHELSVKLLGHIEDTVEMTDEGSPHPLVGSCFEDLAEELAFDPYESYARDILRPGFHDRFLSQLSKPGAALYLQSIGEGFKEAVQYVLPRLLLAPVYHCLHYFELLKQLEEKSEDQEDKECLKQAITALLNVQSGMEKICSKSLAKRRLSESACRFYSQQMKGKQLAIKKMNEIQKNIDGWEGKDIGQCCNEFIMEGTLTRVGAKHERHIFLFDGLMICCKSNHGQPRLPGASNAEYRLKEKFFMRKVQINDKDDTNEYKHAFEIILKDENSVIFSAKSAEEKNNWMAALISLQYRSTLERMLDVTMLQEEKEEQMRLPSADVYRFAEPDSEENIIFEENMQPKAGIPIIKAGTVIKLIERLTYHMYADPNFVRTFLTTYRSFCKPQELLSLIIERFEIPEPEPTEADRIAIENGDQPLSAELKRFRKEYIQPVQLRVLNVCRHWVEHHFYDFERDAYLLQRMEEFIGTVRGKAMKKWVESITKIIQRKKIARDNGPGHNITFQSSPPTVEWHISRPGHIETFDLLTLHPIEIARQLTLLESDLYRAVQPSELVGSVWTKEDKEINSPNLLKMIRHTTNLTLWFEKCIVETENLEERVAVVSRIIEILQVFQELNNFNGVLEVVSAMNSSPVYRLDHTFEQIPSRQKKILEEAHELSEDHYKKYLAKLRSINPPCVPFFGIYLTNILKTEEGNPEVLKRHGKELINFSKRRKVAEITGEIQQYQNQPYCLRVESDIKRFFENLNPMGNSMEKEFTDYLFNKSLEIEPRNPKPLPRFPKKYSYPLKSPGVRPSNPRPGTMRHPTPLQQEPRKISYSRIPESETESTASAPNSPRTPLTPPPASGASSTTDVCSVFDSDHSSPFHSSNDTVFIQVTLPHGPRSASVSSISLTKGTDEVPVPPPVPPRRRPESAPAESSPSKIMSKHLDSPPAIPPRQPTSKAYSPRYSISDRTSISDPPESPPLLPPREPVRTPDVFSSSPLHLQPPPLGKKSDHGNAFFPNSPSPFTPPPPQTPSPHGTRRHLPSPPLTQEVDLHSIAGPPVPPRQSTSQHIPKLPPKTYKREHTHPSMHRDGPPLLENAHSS
- method: Protac activity at VHL/SOS1 in human NCI-H358 cells assessed as SOS1 protein degradation at 1 uM incubated for 24 hr by Western blot analysis relative to control
- Assay type: cell-based
Activity strictly less than 40% = Satisfied. Otherwise Not satisfied.

smilesStr | assignedCategory
Cc1cc(Cn2c(N3CC4(CNC4)C3)nc3c(N4CCN(CCCCCCCC(=O)N[C@H](C(=O)N5C[C@H](O)C[C@H]5C(=O)N[C@@H](C)c5ccc(-c6scnc6C)cc5)C(C)(C)C)CC4)cc(Cl)cc32)cc(C)c1F | Not satisfied
Cc1cc(Cn2c(N3CC4(CNC4)C3)nc3c(N4CCN(CCC(=O)NCCCC(=O)N[C@H](C(=O)N5C[C@H](O)C[C@H]5C(=O)N[C@@H](C)c5ccc(-c6scnc6C)cc5)C(C)(C)C)CC4)cc(Cl)cc32)cc(C)c1F | Satisfied
Cc1cc(Cn2c(N3CC4(CNC4)C3)nc3c(N4CCN(CCCCCC(=O)N[C@H](C(=O)N5C[C@H](O)C[C@H]5C(=O)N[C@@H](C)c5ccc(-c6scnc6C)cc5)C(C)(C)C)CC4)cc(Cl)cc32)cc(C)c1F | Satisfied
Cc1cc(Cn2c(N3CC4(CNC4)C3)nc3c(N4CCN(CCCCCCCCC(=O)N[C@H](C(=O)N5C[C@H](O)C[C@H]5C(=O)N[C@@H](C)c5ccc(-c6scnc6C)cc5)C(C)(C)C)CC4)cc(Cl)cc32)cc(C)c1F | Not satisfied
Cc1cc(Cn2c(N3CC4(CNC4)C3)nc3c(N4CCN(CC5CCN(CCCC(=O)N[C@H](C(=O)N6C[C@H](O)C[C@H]6C(=O)N[C@@H](C)c6ccc(-c7scnc7C)cc6)C(C)(C)C)CC5)CC4)cc(Cl)cc32)cc(C)c1F | Satisfied
Cc1cc(Cn2c(N3CC4(CNC4)C3)nc3c(N4CCN(CCOCCOCCOCCC(=O)N[C@H](C(=O)N5C[C@H](O)C[C@H]5C(=O)N[C@@H](C)c5ccc(-c6scnc6C)cc5)C(C)(C)C)CC4)cc(Cl)cc32)cc(C)c1F | Satisfied
Cc1cc(Cn2c(N3CC4(CNC4)C3)nc3c(N4CCN(CCCCC(=O)NCCCC(=O)N[C@H](C(=O)N5C[C@H](O)C[C@H]5C(=O)N[C@@H](C)c5ccc(-c6scnc6C)cc5)C(C)(C)C)CC4)cc(Cl)cc32)cc(C)c1F | Satisfied
Cc1cc(Cn2c(N3CC4(CNC4)C3)nc3c(N4CCN(CCOCCOCCC(=O)N[C@H](C(=O)N5C[C@H](O)C[C@H]5C(=O)N[C@@H](C)c5ccc(-c6scnc6C)cc5)C(C)(C)C)CC4)cc(Cl)cc32)cc(C)c1F | Satisfied
Cc1cc(Cn2c(N3CC4(CNC4)C3)nc3c(N4CCN(CCCCCCC(=O)N[C@H](C(=O)N5C[C@H](O)C[C@H]5C(=O)N[C@@H](C)c5ccc(-c6scnc6C)cc5)C(C)(C)C)CC4)cc(Cl)cc32)cc(C)c1F | Not satisfied
Cc1cc(Cn2c(N3CC4(CNC4)C3)nc3c(N4CCN(CCOCCOCC(=O)N[C@H](C(=O)N5C[C@H](O)C[C@H]5C(=O)N[C@@H](C)c5ccc(-c6scnc6C)cc5)C(C)(C)C)CC4)cc(Cl)cc32)cc(C)c1F | Satisfied
Cc1cc(Cn2c(N3CC4(CNC4)C3)nc3c(N4CCN(CCCC(=O)NCCCC(=O)N[C@H](C(=O)N5C[C@H](O)C[C@H]5C(=O)N[C@@H](C)c5ccc(-c6scnc6C)cc5)C(C)(C)C)CC4)cc(Cl)cc32)cc(C)c1F | Satisfied
Cc1cc(Cn2c(N3CC4(CNC4)C3)nc3c(N4CCN(CCCCCCCCCCCC(=O)N[C@H](C(=O)N5C[C@H](O)C[C@H]5C(=O)N[C@@H](C)c5ccc(-c6scnc6C)cc5)C(C)(C)C)CC4)cc(Cl)cc32)cc(C)c1F | Not satisfied
Cc1cc(Cn2c(N3CC4(CNC4)C3)nc3c(N4CCN(CCCCCCCCCC(=O)N[C@H](C(=O)N5C[C@H](O)C[C@H]5C(=O)N[C@@H](C)c5ccc(-c6scnc6C)cc5)C(C)(C)C)CC4)cc(Cl)cc32)cc(C)c1F | Not satisfied
Cc1cc(Cn2c(N3CC4(CNC4)C3)nc3c(N4CCN(CCCCCCCCCCC(=O)N[C@H](C(=O)N5C[C@H](O)C[C@H]5C(=O)N[C@@H](C)c5ccc(-c6scnc6C)cc5)C(C)(C)C)CC4)cc(Cl)cc32)cc(C)c1F | Not satisfied
Cc1cc(Cn2c(N3CC4(CNC4)C3)nc3c(N4CCN(CC5CCN(CC(=O)N[C@H](C(=O)N6C[C@H](O)C[C@H]6C(=O)N[C@@H](C)c6ccc(-c7scnc7C)cc6)C(C)(C)C)CC5)CC4)cc(Cl)cc32)cc(C)c1F | Not satisfied
Cc1cc(Cn2c(N3CC4(CNC4)C3)nc3c(N4CCN(CC5CCN(CCC(=O)N[C@H](C(=O)N6C[C@H](O)C[C@H]6C(=O)N[C@@H](C)c6ccc(-c7scnc7C)cc6)C(C)(C)C)CC5)CC4)cc(Cl)cc32)cc(C)c1F | Satisfied

====

- method: Cmax in BALB/c mouse at 10 mg/kg, ip measured after 24 hrs by LC-MS/MS analysis
- Format: ADME, organism-based
- Design: dose 10 mg/kg, time 24 hrs, route ip
- conditionsUsed: in vivo

smilesStr | quantityUnit | Cmax
Cc1cc(Cn2c(N3CC4(CNC4)C3)nc3c(N4CCN(CCCCCCCCC(=O)N[C@H](C(=O)N5C[C@H](O)C[C@H]5C(=O)N[C@@H](C)c5ccc(-c6scnc6C)cc5)C(C)(C)C)CC4)cc(Cl)cc32)cc(C)c1F | ng/mL | 1220
